# PROTOCOL: Kinetic solubility in pH 7.4 PBS incubated for 5 mins by UV-spectrophotometry analysis
# Type: physicochemical
# CONDITION_LABEL: read-out: Kinetic_solubility
QUANTITY_KIND: solubility kinetic at 5 min
Quick note: unit goes after the number.

Prompt: Please look up its solubility kinetic at 5 min: FC(F)(F)Oc1ccc([C@H]2C[C@@H](CN3CCCC3)N2Cc2ccccc2OC(F)(F)F)cc1 (racemic)
Response: 7 µM

====

# PROTOCOL: Lipophilicity, log P of the compound
# Format: physicochemical
# CONDITION_LABEL: octanol/water
I'd appreciate it if you marked entries t when logP is lower than 6 and f when it is not.

Some solved entries appear below for comparison.
>>> category("Brc1ccccc1CN1[C@H](CN2CCCC2)C[C@@H]1c1ccccc1 (racemic)")
"t"
>>> category("CC(C)NC[C@@H]1C[C@H](c2ccccc2)N1Cc1ccccc1Br (racemic)")
"t"

Prompt: Is 6 strictly greater than the molecule's reported logP? molecule: CC(C)NC[C@@H]1C[C@H](c2ccc(OC(F)(F)F)cc2)N1Cc1ccccc1Br (racemic)
Response: f

Prompt: Is 6 strictly greater than the molecule's reported logP? molecule: FC(F)(F)c1ccc(C2CCN(C[C@@H]3C[C@H](c4ccccc4)N3Cc3ccccc3Br)CC2)cc1 (racemic)
Response: f

Prompt: Is 6 strictly greater than the molecule's reported logP? molecule: FC(F)(F)Oc1ccc([C@H]2C[C@@H](CN3CCCC3)N2Cc2ccccc2OC(F)(F)F)cc1 (racemic)
Response: f
